# pKi per entry for S. aureus TopoIV (Staphylococcus aureus, UniProt P0C1S7)
pKi: −log10 of the molar value.
QUANTITY_KIND: pKi

[
  {
    "COMPOUND": "CCNC(=O)Nc1nc2cc(F)cc(-c3ncccn3)c2[nH]1 [Compound I-15]",
    "VALUE_OBSERVED": "≤ 6.30"
  },
  {
    "COMPOUND": "CCNC(=O)Nc1nc2cc(C(C)CC(=O)N(C)C)cc(-c3ncccc3F)c2[nH]1 (stereo not shown) [Compound I-19]",
    "VALUE_OBSERVED": "≤ 6.30"
  },
  {
    "COMPOUND": "CCNC(=O)Nc1nc2cc(C#N)c(F)c(-n3cccn3)c2[nH]1 [Compound I-16]",
    "VALUE_OBSERVED": "≤ 6.30"
  },
  {
    "COMPOUND": "CCNC(=O)Nc1nc2cc(C3=CC(=O)N(Cc4ccccc4)CC3)cc(-n3cccn3)c2[nH]1 [Compound I-18]",
    "VALUE_OBSERVED": "≥ 6.60"
  },
  {
    "COMPOUND": "CCNC(=O)Nc1nc2cc(NCc3ccccn3)cc(-c3ncccn3)c2[nH]1 [Compound I-14]",
    "VALUE_OBSERVED": "≤ 6.30"
  },
  {
    "COMPOUND": "CCNC(=O)Nc1nc2cc(/C(C)=C/C(=O)N(C)C)cc(-c3ncccc3F)c2[nH]1 [Compound I-8]",
    "VALUE_OBSERVED": "≥ 6.60"
  },
  {
    "COMPOUND": "CCNC(=O)Nc1nc2cc(C3CCN(C)C(=O)C3)cc(-c3ncccc3F)c2[nH]1 (stereo not shown) [Compound I-13]",
    "VALUE_OBSERVED": "≥ 6.60"
  },
  {
    "COMPOUND": "CCNC(=O)Nc1nc2cc(/C(C)=C/C(=O)NC)cc(-c3ncccc3F)c2[nH]1 [Compound I-10]",
    "VALUE_OBSERVED": "≥ 6.60"
  },
  {
    "COMPOUND": "CCNC(=O)Nc1nc2cc(C(C)CC(=O)NC)cc(-c3ncccc3F)c2[nH]1 (stereo not shown) [Compound I-9]",
    "VALUE_OBSERVED": "≤ 6.30"
  },
  {
    "COMPOUND": "CCNC(=O)Nc1nc2cc(C3CCN(Cc4ccccc4)C(=O)C3)cc(-n3cccn3)c2[nH]1 (stereo not shown) [Compound I-17]",
    "VALUE_OBSERVED": "≥ 6.60"
  }
]
